Measured Cli values are reported for all entries that follow.
# test.summary: Intrinsic clearance (Cli), mouse liver microsomes
# Format: in vitro ADME
# condition.parameters: mouse microsomes
Just the number please, in mL/min/g, no unit attached.

These solved cases illustrate the format of a correct answer.
| record.smiles | recorded.result |
| --- | --- |
| Cc1nn(C)c(C)c1N(CC(F)(F)F)[S+](=O)([O-])c1c(Cl)cc(CCCC2CCN(C)CC2)cc1Cl | 1.1 |
| Cc1nn(C)c(C)c1N(C)S(=O)(=O)c1c(Cl)cc(CCCN2CCN(C)CC2)cc1Cl | 7.4 |
| Cc1nn(C)c(C)c1NS(=O)(=O)c1c(Cl)cc(CCCC2CCN(C)CC2)cc1Cl | 4.3 |

# next compound below
Returns the measured Cli for the input compound. Input: Cc1nn(C)c(C)c1N(C(F)F)S(=O)(=O)c1c(Cl)cc(CCCN2CCN3CCC[C@@H]3C2)cc1Cl
15
